# target system: UniProt Q9NWZ3
# Sequence (Q9NWZ3 whole entry): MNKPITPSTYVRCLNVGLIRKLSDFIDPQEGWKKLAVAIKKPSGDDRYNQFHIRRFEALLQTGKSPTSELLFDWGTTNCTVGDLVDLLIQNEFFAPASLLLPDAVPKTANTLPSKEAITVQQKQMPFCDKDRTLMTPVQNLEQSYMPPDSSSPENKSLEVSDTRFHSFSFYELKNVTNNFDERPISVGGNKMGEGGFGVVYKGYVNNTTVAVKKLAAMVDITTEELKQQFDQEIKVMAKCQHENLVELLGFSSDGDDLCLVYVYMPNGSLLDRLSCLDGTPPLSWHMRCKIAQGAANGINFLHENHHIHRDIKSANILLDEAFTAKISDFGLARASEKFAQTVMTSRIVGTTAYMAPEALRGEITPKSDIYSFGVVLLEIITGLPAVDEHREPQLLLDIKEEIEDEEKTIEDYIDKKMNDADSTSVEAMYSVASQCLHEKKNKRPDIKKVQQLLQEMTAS
# assay protocol: IRAK4 MSD degradation in OCI-LY10
# Format: cell-based
# condition details: OCI-LY10, 4 hrs, MSD; read-out: IRAK4 MSD degradation in OCI-LY10 at 4 hrs: Average external-Abs DC50
readout kind: DC50

Sample records with DC50:
CN(C[C@H]1CN(CCCNc2cccc3c2C(=O)N(C2CCC(=O)NC2=O)C3=O)CCO1)C[C@H]1CC[C@H](n2cc(NC(=O)c3cnn4ccc(N5C[C@H]6C[C@@H]5CO6)nc34)c(C(F)F)n2)CC1 (some centres unmarked) = 100 to 1000 nM
CN(C[C@H]1CC[C@H](n2cc3cc(NC(=O)c4cccc(C(F)(F)F)n4)c(C(C)(C)O)cc3n2)CC1)C1CCC2(CC1)CC(CNc1cccc3c1C(=O)N(C1CCC(=O)NC1=O)C3=O)C2 (some centres unmarked) = 10 to 100 nM

Please find the next compound below.
What value of measured DC50 is listed for O=C1CCC(N2C(=O)c3cccc(NCC4CC5(CCN(C(=O)[C@H]6CC[C@H](n7cc(NC(=O)c8cnn9ccc(N%10CCNCC%10)nc89)c(C(F)F)n7)CC6)CC5)C4)c3C2=O)C(=O)N1 (some centres unmarked) ?
10 to 100 nM
